src = patent US20240376085A1

Parameter pIC50: see the listing below.
Biological target: IL-17A : IL-17RA binding (Homo sapiens, UniProt Q16552, K93Q)
Construct: Name: IL-17A-Flag
Sequence (Q16552 with tags, fused parts or gaps K93Q): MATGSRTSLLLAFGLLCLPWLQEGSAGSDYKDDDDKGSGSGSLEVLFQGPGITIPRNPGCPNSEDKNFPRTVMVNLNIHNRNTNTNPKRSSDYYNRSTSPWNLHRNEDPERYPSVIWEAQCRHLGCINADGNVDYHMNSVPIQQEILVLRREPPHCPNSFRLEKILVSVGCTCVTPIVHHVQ
Experiment: IL-17A(FLAG-tagged):IL-17RA(His-tagged) binding disruption Eu-HTRF assay, Protocol 1
Conditions: FLAG-IL-17A 2.5 nM at 2x final concentration; average if tested more than once
pIC50: −log10 of the molar value.

{"columns": ["compound", "pIC50"],
 "data": [
  ["CCc1nonc1C(=O)N[C@@H](CC(C)(C)C(F)(F)F)c1nc2cc([C@H](NC(=O)CCC(F)(F)F)C3CC3)ccc2[nH]1 (relative stereo)", "> 7.30"],
  ["C[C@@H](NC(=O)CCC(F)(F)F)c1ccc2[nH]c([C@@H](NC(=O)[C@H]3C[C@@H]3F)C3CCC(F)(F)CC3)nc2c1", "< 7.00"],
  ["C[C@@H](NC(=O)CCC(F)(F)F)c1ccc2[nH]c([C@@H](NC(=O)[C@@H]3CC[C@@H]3CF)C3CCC(F)(F)CC3)nc2c1 (single isomer, unassigned)", "< 7.00"]
]}

Ask: Answer with pIC50 of C[C@@H](NC(=O)CCC(F)(F)F)c1ccc2[nH]c([C@@H](NC(=O)c3nccn3CCC(F)(F)F)C3CCC(F)(F)CC3)nc2c1 measured for IL-17A : IL-17RA binding (Homo sapiens, UniProt Q16552, K93Q).
Reply: < 7.00

Ask: Answer with pIC50 of COC[C@H](NC(=O)CC1CC(F)(F)C1)c1ccc2nc([C@H](COC(C)(C)C(F)(F)F)NC(=O)c3nonc3C3CC3)[nH]c2c1 (relative stereo) measured for IL-17A : IL-17RA binding (Homo sapiens, UniProt Q16552, K93Q).
Reply: > 7.30

Ask: Answer with pIC50 of CC(C)n1nccc1C(=O)NC(CO[C@H](C)C(F)(F)F)c1nc2ccc([C@H](NC(=O)CC3CC(F)(F)C3)C3CC3)cc2[nH]1 (single isomer, unassigned) measured for IL-17A : IL-17RA binding (Homo sapiens, UniProt Q16552, K93Q).
Reply: > 7.30

Ask: Answer with pIC50 of C[C@@H](NC(=O)CCC(F)(F)F)c1ccc2[nH]c([C@@H](NC(=O)c3c(C#N)cnn3CC3CCC3)C3CCC(F)(F)CC3)nc2c1 measured for IL-17A : IL-17RA binding (Homo sapiens, UniProt Q16552, K93Q).
Reply: < 7.00

---

Test system: IL-17A-induced G-CSF production in human normal keratinocyte (NHK)
Experiment: NHK assay: IL-17A-induced G-CSF production in normal human keratinocytes
Format: cell-based
Conditions: Homo sapiens, Keratinocyte, 24 h, IL-17A 5 ng/mL, average if tested more than once
pIC50: −log10 of the molar value.
Parameter pIC50: see the listing below.

{"columns": ["molecule", "meas-value"],
 "data": [
  ["C[C@@H](NC(=O)CCC(F)(F)F)c1ccc2[nH]c([C@@H](NC(=O)c3cn(CC4CCC4)nc3C(N)=O)C3CCC(F)(F)CC3)nc2c1 [Example 89]", "< 7.00"],
  ["C[C@@H](NC(=O)CCC(F)(F)F)c1ccc2nc([C@@H](NC(=O)c3cnn(CCC(F)F)n3)C3CCC(F)(F)CC3)[nH]c2c1 [Example 73]", "< 7.00"]
]}

Alright, here's another molecule for you.
Ask: Answer with pIC50 of CC(C)n1nccc1C(=O)N[C@H](c1nc2ccc([C@H](NC(=O)CC3CC(F)(F)C3)C3CC3)cc2[nH]1)[C@H]1C[C@@H]2[C@H](C1)C2(F)F [Example 241] measured for IL-17A-induced G-CSF production in human normal keratinocyte (NHK).
Reply: > 7.30

---

System: IL-17A-induced G-CSF production in human normal keratinocyte (NHK)
Assay: NHK assay: IL-17A-induced G-CSF production in normal human keratinocytes
Format: cell-based
Conditions: Homo sapiens, Keratinocyte, 24 h, IL-17A 5 ng/mL, average if tested more than once
Parameter IC50: see the listing below.

Here's what some known entries look like.
{"columns": ["compound", "subject-of-test", "metric-name", "meas-value"],
 "data": [
  ["C[C@@H](NC(=O)CCC(F)(F)F)c1ccc2[nH]c([C@@H](NC(=O)c3ccn4c3CCC4)C3CCC(F)(F)CC3)nc2c1 [Example 210]", "IL-17A-induced G-CSF production in human normal keratinocyte (NHK)", "IC50", "> 100 nM"],
  ["C[C@@H](NC(=O)CCC(F)(F)F)c1ccc2nc([C@@H](NC(=O)c3cn(CC(F)(F)F)nc3C3CC3)C3CCC(F)(F)CC3)[nH]c2c1 [Example 75]", "IL-17A-induced G-CSF production in human normal keratinocyte (NHK)", "IC50", "> 100 nM"],
  ["CCc1nonc1C(=O)NC(CC(C)(C)C(F)(F)F)c1nc2cc([C@@H](C)NC(=O)CCC(F)(F)F)ccc2[nH]1 (single isomer, unassigned) [Example 197]", "IL-17A-induced G-CSF production in human normal keratinocyte (NHK)", "IC50", "50 to 100 nM"],
  ["CC(C)(C[C@H](NC(=O)c1nonc1C1CC1)c1nc2ccc([C@H](NC(=O)CC3CC(F)(F)C3)C3CC3)cc2[nH]1)C(F)(F)F [Example 178]", "IL-17A-induced G-CSF production in human normal keratinocyte (NHK)", "IC50", "< 50 nM"],
  ["CC(C)C(NC(=O)CCC(F)(F)F)c1ccc2[nH]c([C@@H](NC(=O)c3ccnn3C)C3CCC(F)(F)CC3)nc2c1 (single isomer, unassigned) [Example 44]", "IL-17A-induced G-CSF production in human normal keratinocyte (NHK)", "IC50", "> 100 nM"],
  ["CC(C)n1nccc1C(=O)N[C@@H](COC(C)C(F)(F)F)c1nc2ccc([C@H](NC(=O)CC3CC(F)(F)C3)C3CC3)cc2[nH]1 (relative stereo) [Example 156]", "IL-17A-induced G-CSF production in human normal keratinocyte (NHK)", "IC50", "50 to 100 nM"]
]}

Alright, here's another compound for you.
Ask: Tell me its IC50 given Cc1nonc1C(=O)N[C@H](c1nc2cc([C@H](NC(=O)CC3CC(F)(F)C3)C3CC3)ccc2[nH]1)C1CCC(F)(F)CC1 [Example 141] as the entry.
Reply: < 50 nM

---

Target: IL-17A : IL-17RA binding (Homo sapiens, UniProt Q16552, K93Q)
Construct: Name: IL-17A-Flag
Experiment: IL-17A(FLAG-tagged):IL-17RA(His-tagged) binding disruption Eu-HTRF assay, Protocol 2
Conditions: FLAG-IL-17A 1 nM at 2x final concentration; average if tested more than once
metric-name: IC50

{"columns": ["compound", "IC50"],
 "data": [
  ["Cc1nonc1C(=O)N[C@@H](CO[C@@H](C)C(F)(F)F)c1nc2ccc([C@H](NC(=O)CC3CC(F)(F)C3)C3CC3)cc2[nH]1 (relative stereo)", "50 to 100 nM"],
  ["Cc1nonc1C(=O)N[C@H](c1nc2cc([C@@H](COC3CC3)NC(=O)C[C@H]3CC3(F)F)ccc2[nH]1)[C@@H](C)OC(C)(C)C(F)(F)F", "50 to 100 nM"],
  ["Cc1nonc1C(=O)N[C@H](c1nc2cc([C@@H](COC3CC3)NC(=O)C[C@H]3CC3(F)F)ccc2[nH]1)[C@@H](C)O[C@H](C)C(F)(F)F", "50 to 100 nM"],
  ["C[C@@H](OC1CC1)[C@H](NC(=O)c1nonc1C1CC1)c1nc2cc([C@@H](COC3CC3)NC(=O)CC3CC(F)(F)C3)ccc2[nH]1", "50 to 100 nM"],
  ["Cc1nonc1C(=O)N[C@H](c1nc2cc([C@@H](COC3CC3)NC(=O)CC3CC(F)(F)C3)ccc2[nH]1)[C@@H](C)OC(C)(C)C(F)(F)F", "50 to 100 nM"]
]}

Ask: Tell me its IC50 given Cc1nonc1C(=O)N[C@H](c1nc2cc([C@@H](COC3CC3)NC(=O)CC3CC(F)(F)C3)ccc2[nH]1)[C@@H](C)O[C@@H](C)C(F)(F)F [Example 274] as the entry.
Reply: 50 to 100 nM

Ask: Tell me its IC50 given COC[C@H](NC(=O)CC1CC(F)(F)C1)c1ccc2nc([C@H](COC(C)(C)C(F)(F)F)NC(=O)c3nonc3C3CC3)[nH]c2c1 (relative stereo) as the entry.
Reply: < 50 nM

Ask: Tell me its IC50 given C[C@@H](NC(=O)CC1CC(F)(F)C1)c1ccc2nc(C(COC(C)(C)C(F)(F)F)NC(=O)c3nonc3C3CC3)[nH]c2c1 (single isomer, unassigned) as the entry.
Reply: < 50 nM

Ask: Tell me its IC50 given Cc1nonc1C(=O)N[C@H](c1nc2cc([C@@H](COC3CC3)NC(=O)CC3CC(F)(F)C3)ccc2[nH]1)[C@@H](C)O[C@@H](C)C(F)(F)F [Example 272] as the entry.
Reply: > 100 nM

Ask: Tell me its IC50 given CC(C)n1nccc1C(=O)N[C@H](c1nc2ccc([C@@H](C)NC(=O)CCC(F)(F)F)cc2[nH]1)C1CCC(F)(F)CC1 as the entry.
Reply: > 100 nM

Ask: Tell me its IC50 given CC(C)n1nccc1C(=O)N[C@H](c1nc2cc([C@@H](COC3CC3)NC(=O)CC3CC(F)(F)C3)ccc2[nH]1)[C@@H](C)O[C@@H](C)C(F)(F)F as the entry.
Reply: > 100 nM
